Measured AC50 of individual entries
# Tested on: MALME3 melanoma viability, CellTiter-Glo luminescence, 24 h
# assay-remarks: growth inhibition of MALME3 cells – cell-based, CellTiter-Glo, cherry-picked, orthogonal assay for MITF inhibitor project, dose response (AID 493191)

[Q] Recorded AC50 for `COc1ccc(C(=O)/C=C/C(=O)N(CC(=O)NC2CCCCC2)Cc2ccccc2OC)c(O)c1` , please?
[A] 4.63 µM

[Q] Note, next up: `Cc1ccc(C)c(C(=O)Cn2ncc(Cl)c(Cl)c2=O)c1`
[A] 16 µM

[Q] Note, next up: `CC(=O)c1cccc(NC(=O)/C=C/c2ccc([N+](=O)[O-])s2)c1`
[A] 16.8 µM

* * *

# Tested on: MALME3 melanoma viability, CellTiter-Glo luminescence, 24 h
# assay-remarks: growth inhibition of MALME3 cells – cell-based, CellTiter-Glo, cherry-picked, orthogonal assay for MITF inhibitor project, dose response (AID 493191)
Measured AC50 of individual entries

Before answering, review these 4 worked examples.
| compound-structure | AC50 |
| --- | --- |
| CCCCn1c(=N)n(CCOc2ccc(C)cc2)c2ccccc21 | 26.5 µM |
| CCOCCCNC(=O)/C(C#N)=C/c1ccc([N+](=O)[O-])o1 | 12.6 µM |
| O=C(COC(=O)c1ccccc1C(=O)c1ccc(Cl)c([N+](=O)[O-])c1)NC1CC1 | 15.6 µM |
| O=C(Cn1ncc(Cl)c(Cl)c1=O)Nc1ccc2c(c1)OCO2 | 25.1 µM |

[Q] Recorded AC50 for `Cc1ccc(NC(=O)Cn2ncc(Cl)c(Cl)c2=O)cc1S(=O)(=O)N1CCCCC1` , please?
[A] 15.8 µM

[Q] Note, next up: `O=C(Cc1ccc2c(c1)OCO2)NN=Cc1ccc([N+](=O)[O-])o1`
[A] 19.1 µM

* * *

Measured AC50 of individual entries
# Test system: MALME3 melanoma viability, CellTiter-Glo luminescence, 24 h
# assay-remarks: growth inhibition of MALME3 cells – cell-based, CellTiter-Glo, cherry-picked, orthogonal assay for MITF inhibitor project, dose response (AID 493191)

Before answering, review these 3 worked examples.
| molecule | AC50 |
| --- | --- |
| O=C(NC1=C(Nc2ccc(Cl)cc2)C(=O)c2ccccc2C1=O)c1ccccc1 | 20.3 µM |
| CC(C)(C)c1ccc(Cn2c(=N)n(CC(O)c3ccco3)c3ccccc32)cc1 (configuration not stated) | 18.3 µM |
| COc1ccc(NC(=O)CCC(=O)N/N=C/c2ccc([N+](=O)[O-])s2)cc1 | 28.2 µM |

[Q] Recorded AC50 for `N#C/C(=C(/O)c1ccc([N+](=O)[O-])o1)c1nc2ccccc2[nH]1` , please?
[A] 9.62 µM

[Q] Note, next up: `CCOC(=O)CCc1ccc(NC(=O)/C=C/c2ccc([N+](=O)[O-])o2)cc1`
[A] 13.9 µM

* * *

# System: MALME3 melanoma viability, CellTiter-Glo luminescence, 24 h
# assay-remarks: growth inhibition of MALME3 cells – cell-based, CellTiter-Glo, cherry-picked, orthogonal assay for MITF inhibitor project, dose response (AID 493191)
measured-parameter: AC50

| molecule | AC50 |
| --- | --- |
| COc1cc2c(cc1OC)C(c1ccccc1)N(C(=O)CCl)CC2 (stereo not given) | 18 µM |
| O=C(CS(=O)c1ccc(C(F)(F)F)cc1[N+](=O)[O-])Oc1ccccc1 (stereo not given) | 20.7 µM |
| O=[N+]([O-])c1ccc(S(=O)(=O)CC(CN2CCCCC2)N2CCCCC2)cc1 (stereo not given) | 13.4 µM |
| COc1ccc(C(CCNC(C)c2ccccc2)c2ccc(F)cc2)cc1 (stereo not given) | 16.7 µM |
| COc1ccc(C(=O)/C=C/C(=O)N(CC(=O)NC2CCCCC2)CC2CCCO2)c(O)c1 (stereo not given) | 4.8 µM |

[Q] Record lookup: for MALME3 melanoma viability, CellTiter-Glo luminescence, 24 h, what AC50 belongs to `COC1=C(Nc2ccc(O)cc2)C(=O)c2ccccc2C1=O` ?
[A] 14.3 µM

[Q] Note, next up: `O=C1c2cc([N+](=O)[O-])cc3cc([N+](=O)[O-])cc(c23)C(=O)N1c1ccccn1`
[A] 21.9 µM

[Q] Note, next up: `O=C(Cn1ncc(Cl)c(Cl)c1=O)c1ccc(Cl)cc1`
[A] 26.5 µM

[Q] Note, next up: `C=CCn1c(C)cc(C2=NNC(=NCC)SC2)c1C`
[A] 17.6 µM

[Q] Note, next up: `CCN1CCN(CCCNC(=O)c2ccc3c(c2)NC(=O)/C(=C\c2cccc(C)c2)S3)CC1`
[A] 28.1 µM

[Q] Note, next up: `O=C(Nc1nc(-c2ccccn2)cs1)c1ccc([N+](=O)[O-])o1`
[A] 28.5 µM

[Q] Note, next up: `CCOc1ccc(-c2ccc(SC)nn2)cc1`
[A] 26.5 µM

[Q] Note, next up: `Cn1c(SCC(=O)N/N=C/c2ccc([N+](=O)[O-])s2)nnc1-c1ccccc1`
[A] 14.7 µM

[Q] Note, next up: `O=C1/C(=C/c2ccccc2[N+](=O)[O-])COc2ccccc21`
[A] 25.3 µM

[Q] Note, next up: `Cc1ccc(NC2=C(Cl)C(=O)c3ccccc3C2=O)cc1`
[A] 6.96 µM

[Q] Note, next up: `Cc1c(NC(=O)c2ccc([N+](=O)[O-])o2)cccc1-c1nc2ncccc2o1`
[A] 15.4 µM

[Q] Note, next up: `N=c1n(CC(=O)c2ccc([N+](=O)[O-])cc2)c2ccccc2n1Cc1ccccc1`
[A] 25.4 µM

[Q] Note, next up: `CC(C)(C)NC(=O)CCN(/N=C/c1ccc([N+](=O)[O-])o1)C1=NS(=O)(=O)c2ccccc21`
[A] 31.9 µM

[Q] Note, next up: `O=C(Nc1cc(-c2nc3ncccc3o2)ccc1Cl)c1ccc([N+](=O)[O-])o1`
[A] 18.2 µM

[Q] Note, next up: `CCOC(=O)c1c(C)oc2c1C(=O)c1ccccc1C2=O`
[A] 7.25 µM

[Q] Note, next up: `CCOC(=O)c1ccc(NC2=CC(=O)C(=O)c3ccccc32)cc1`
[A] 5.16 µM

* * *

# Tested on: MALME3 melanoma viability, CellTiter-Glo luminescence, 24 h
# assay-remarks: growth inhibition of MALME3 cells – cell-based, CellTiter-Glo, cherry-picked, orthogonal assay for MITF inhibitor project, dose response (AID 493191)
measured-parameter: AC50

Before answering, review these 3 worked examples.
| compound | measured-parameter | result |
| --- | --- | --- |
| CN(C)S(=O)(=O)c1ccc(-c2csc(N/N=C/c3ccc(O)cc3)n2)cc1 | AC50 | 21.2 µM |
| Cc1ccc(-c2nc(C(=O)NCCCN(C)C)cc3c2[nH]c2ccccc23)cc1 | AC50 | 31.1 µM |
| O=C(Nc1cccc(S(=O)(=O)N2CCCCC2)c1)c1ccc([N+](=O)[O-])o1 | AC50 | 15.9 µM |

[Q] Record lookup: for MALME3 melanoma viability, CellTiter-Glo luminescence, 24 h, what AC50 belongs to `COc1cc(NC(=O)c2[nH]cnc2C(N)=O)cc(C(=O)Nc2cccc(C(F)(F)F)c2)c1` ?
[A] 11.2 µM

[Q] Note, next up: `Cc1ccc(-c2nnc(SCC(=O)Nc3ccccc3F)o2)cc1`
[A] 19.7 µM

[Q] Note, next up: `O=c1c2ccccc2nc(/C=C/c2ccc([N+](=O)[O-])o2)n1-c1ccc(O)cc1`
[A] 14.5 µM

[Q] Note, next up: CC1CCC(C(C)C)C(OC(=O)Cn2c(-c3ccccc3)[n+](C)c3ccccc32)C1 (stereo unspecified)
[A] 9.63 µM

[Q] Note, next up: `CCC(C)(C)c1ccc(OCCCC[n+]2ccccc2)c(C(C)(C)CC)c1`
[A] 10.8 µM

[Q] Note, next up: `Cc1c(N=C2C=CC(=O)c3ccccc32)c(=O)n(-c2ccccc2)n1C`
[A] 32 µM

[Q] Note, next up: `O=C(COc1ccc(Cl)cc1Cl)Nc1ccccn1`
[A] 14.5 µM

[Q] Note, next up: COc1ccccc1CNCC(O)Cn1c2ccccc2c2ccccc21 (stereo unspecified)
[A] 20 µM

[Q] Note, next up: `CCN(Cc1ccccc1)c1ccc(/C=N/N=C(N)N)cc1`
[A] 24.4 µM

[Q] Note, next up: `O=C(N/N=C\c1ccc([N+](=O)[O-])s1)c1cncc(Br)c1`
[A] 20.2 µM

[Q] Note, next up: `Cc1ccc(-n2nnnc2CNC(=O)c2ccc([N+](=O)[O-])o2)cc1C`
[A] 21.5 µM

[Q] Note, next up: `CC(=O)Nc1ccc(NC(=O)c2nc(S(=O)(=O)Cc3ccccc3)ncc2Cl)cc1`
[A] 5.12 µM

[Q] Note, next up: `Nc1c(N(CCC2=CCCCC2)C(=O)COc2ccc(F)cc2)c(=O)[nH]c(=O)n1Cc1ccccc1`
[A] 15.8 µM

[Q] Note, next up: `O=C1Nc2cc(C(=O)NCCN3CCCCCC3)ccc2S/C1=C\c1ccccc1`
[A] 28.4 µM

[Q] Note, next up: `CC1(C)Cc2ccccc2C2=NNC(=O)C2=N1`
[A] 7 µM
